# System: T1, Full-length human NT5E (recombinant, in-house) (human, UniProt P21589 27-549)
# T1 construct: also called hNT5E; hNT5EWT
# T1 sequence: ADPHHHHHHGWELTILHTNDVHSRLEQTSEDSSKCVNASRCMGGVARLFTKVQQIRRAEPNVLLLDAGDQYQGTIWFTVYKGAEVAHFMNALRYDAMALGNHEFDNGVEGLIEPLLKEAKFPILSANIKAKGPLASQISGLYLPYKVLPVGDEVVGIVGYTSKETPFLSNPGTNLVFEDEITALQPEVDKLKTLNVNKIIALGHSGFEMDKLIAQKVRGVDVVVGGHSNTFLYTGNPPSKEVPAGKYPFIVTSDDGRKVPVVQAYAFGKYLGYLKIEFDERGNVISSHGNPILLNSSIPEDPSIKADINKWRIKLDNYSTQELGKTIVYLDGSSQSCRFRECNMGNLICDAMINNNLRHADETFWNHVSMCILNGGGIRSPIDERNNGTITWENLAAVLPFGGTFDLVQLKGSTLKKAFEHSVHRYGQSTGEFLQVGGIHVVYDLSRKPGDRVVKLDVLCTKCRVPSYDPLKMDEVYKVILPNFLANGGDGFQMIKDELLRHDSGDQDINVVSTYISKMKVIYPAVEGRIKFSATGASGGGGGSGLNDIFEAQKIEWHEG
# Assay: SPR, His-captured NT5E, 1 mM ATP
Assay Endpoint: Kd (nM)
// note: answer is a bare numeric in nM

Reported Kd, binder 1789 AM32 Fab (Fab, V domains shown, also called Fab32) VH: EVQLVESGGGLVQPGGSLRLSCAASGFNVSYSSIHWVRQAPGKGLEWVARIRGNEGDTYYADSVKGRFTISADTSKNTAYLQMNSLRAEDTAVYYCARNYWGWYPFYYFAFDYWGQGTLVTV VL: DIQMTQSPSSLSASVGDRVTITCRASQSVSSAVAWYQQKPGKAPKLLIYSASSLYSGVPSRFSGSRSGTDFTLTISSLQPEDFATYYCQQGWDYPITFGQGTKVEIKR : ____ 15
